# Tested on: ATP;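 also: ATP exposure 15 min at 22 °C before imaging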
# EXPERIMENT SUMMARY: switch fluorescence ratio, 500 uM ATP over buffer (Cy3 cluster intensity, sum of 5 cycles each) (fold (ratio)); higher = stronger signal-on switching upon ATP binding; sequences stand for … in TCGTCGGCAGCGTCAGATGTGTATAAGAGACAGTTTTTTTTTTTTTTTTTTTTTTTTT…TC
# ASSAY SETUP: aptamer strand: ATP DNA aptamer (quencher-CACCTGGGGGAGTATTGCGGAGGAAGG + anchor), 100 nM annealed; ATP concentration: 500 uM
Lab note: compare switch fluorescence ratio against 1. Equal or greater, write met. Smaller, write not met.

Query: Form field: switch fluorescence ratio at least 1? Entry: `TCGAGATAGC`
Reply: met

Query: Evaluate `TATACTTAAT` : switch fluorescence ratio at minimum 1?
Reply: met

Query: Quick check: does `GGTTGAAATG` have switch fluorescence ratio greater than or equal to 1?
Reply: not met

Query: Determine whether this sequence has switch fluorescence ratio no lower than 1: `TTCTGAGGGG`
Reply: met

Query: Check the entry `CTCATCGGGC` : does switch fluorescence ratio equal or exceed 1?
Reply: met

Query: Quick check, switch fluorescence ratio >= 1? `AGATGGATTA`
Reply: met

Query: // inclusive: switch fluorescence ratio at least 1? input: `ATATTTACCG`
Reply: met

Query: Please indicate if the recorded switch fluorescence ratio for `GACCTTGGTG` meets or exceeds 1.
Reply: met

Query: Does `ACAGTACTTT` have a reported switch fluorescence ratio of at least 1?
Reply: met

Query: Has `GTTACTGAGG` a recorded switch fluorescence ratio greater than or equal to 1?
Reply: met

Query: Given `TTGTGAGGTT` , state whether its switch fluorescence ratio is at least 1.
Reply: met

Query: Check the entry `TGTTAAAAAC` : does switch fluorescence ratio equal or exceed 1?
Reply: met

Query: Would you say `GGAGTTCGTT` shows switch fluorescence ratio at minimum 1?
Reply: met

Query: Reported switch fluorescence ratio reaches at least 1 for `CGACAATCAT` ?
Reply: met

Query: Record `TTATACACAT` ; criterion: switch fluorescence ratio no lower than 1. Met?
Reply: met

Query: Has `GATCCATACT` a recorded switch fluorescence ratio greater than or equal to 1?
Reply: met

Query: Please check the record `ACTTCAGCGG` and state if its switch fluorescence ratio is at or above 1.
Reply: met

Query: Is it the case that `ACCCCATGCG` has switch fluorescence ratio reaching or exceeding 1?
Reply: met

Query: Check if switch fluorescence ratio >= 1 (inclusive). Item: `TGGTGCGGCG`
Reply: met

Query: Quick check, switch fluorescence ratio >= 1? `GGTCTTAACT`
Reply: not met

Query: Decide: is the reported value of switch fluorescence ratio for `TACCAAACGG` equal to or greater than 1?
Reply: met

Query: Kindly determine if switch fluorescence ratio recorded for `TTCAAAGGGG` is above or exactly 1.
Reply: met

Query: Check if switch fluorescence ratio >= 1 (inclusive). Item: `CAGGGGTGGC`
Reply: not met

Query: Does the sequence `AGGTGGGCTG` have recorded switch fluorescence ratio that is 1 or more?
Reply: not met

Query: Is reported switch fluorescence ratio greater than or equal to 1 here: `TAGGGGGAGT`
Reply: not met

Query: Identify whether the reported switch fluorescence ratio of the following sequence is 1 or greater: `GGACGTAGTT`
Reply: not met

Query: Decide: is the reported value of switch fluorescence ratio for `ACATTTTTAT` equal to or greater than 1?
Reply: met

Query: For this sequence, is measured switch fluorescence ratio 1 or higher? `TTCCTCGCTT`
Reply: met

Query: Textbook exercise: given the entry `GCTCTATTAT` , state whether its switch fluorescence ratio is greater than or equal to 1.
Reply: met

Query: Can `TTCCTCCCCT` be said to have switch fluorescence ratio at or above 1?
Reply: met

Query: Can `TGGGAGGTCG` be said to have switch fluorescence ratio at or above 1?
Reply: met

Query: Is switch fluorescence ratio at least 1? Consider `CCAAGGCAGG`
Reply: met
